Test system: HEK293 cells
Assay: Preliminary screening as mRNA vectors, EGFP mRNA transfection of HEK293 cells
Assay type: cell-based
Settings: EGFP mRNA 50 ng per well, 96-well plates; percentage of GFP fluorescent cells relative to total number of cells (Hoechst)
MEASURE_NAME: Absolute mRNA transfection efficiency in HEK293 cells (%)
One number for each entry, in %.

Solved entries (count: 7):
# TEST_SMILES, ENDPOINT_RESULT
rows = [
    ("CCCCCCCCNc1nc(NCCN2CCN(C)CC2)nc(SCCCCCCC)n1", 4.3),
    ("CCCCCCCCCCCCCCCCCCNc1nc(NCCN2CCN(C)CC2)nc(SCCCCCCCCCCCCCCC)n1", 1.7),
    ("CCCCCCCCCCCCCCCCCCSc1nc(NCCCCCCCCCCCC)nc(NCCCN2CCN(C)CC2)n1", 1.7),
    ("CCCCCCCCCCCCCCCCSc1nc(NCCN(CC)CC)nc(N(CCCCCCCCCCCC)CCCCCCCCCCCC)n1", 0.8),
    ("CCCCCCCCSc1nc(NCCCCCC)nc(NCCN2CCCCC2)n1", 2.7),
    ("CCCCCCCCCCCCCCCCSc1nc(NCCN2CCCC2)nc(N(CCCCCCCCCCCC)CCCCCCCCCCCC)n1", 0.2),
    ("CCCCCCCCCCCCCCCCCCNc1nc(NCCN2CCCCC2)nc(SCCCCCCCCCCCCCCC)n1", 5.1),
]

Please look at the following compound next.
Query: Fill blank: measured Absolute mRNA transfection efficiency in HEK293 cells of the compound CCCCCCCCCCCCCCCCSc1nc(NCCCN(C)C)nc(N(CCCCCCCCCCCC)CCCCCCCCCCCC)n1 is ____.
Reply: 1.0

The reported numbers originate from patent US20230123334A1.
